Test system: Escherichia coli TOP10;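 further: peptides expressed intracellularly from a pBAD plasmid library in pooled LB shake-flask culture, induced with 0.3% L-arabinose, DNA abundance read by NGS, three biological replicates, DESeq2 with apeglm shrinkage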
EXPERIMENT: shrunken log2 fold change of peptide-encoding DNA abundance (4.5 h post-induction vs induction); higher = less antimicrobial activity (less host growth inhibition)
REPORTED_CONDITIONS: time post-induction: 4.5 h; library: site-saturation at positions 5, 18, 19, 20
Entry flag: label 1 if shrunken log2 fold change reaches -0.03; label 0 if it does not.

Recorded results for 8 sequences are shown here.
RESIDUE_STRING | ASSIGNED_LABEL
RRIRYRPPRLPRPRPRPVKPPRP | label 1
RRIRMRPPRLPRPRPRPPKCPRP | label 1
RRIRWRPPRLPRPRPRPIIYPRP | label 0
RRIRNRPPRLPRPRPRPLGKPRP | label 0
RRIRHRPPRLPRPRPRPLDTPRP | label 1
RRIRCRPPRLPRPRPRPAFNPRP | label 0
RRIRFRPPRLPRPRPRPVGLPRP | label 1
RRIRRRPPRLPRPRPRPWYCPRP | label 0

In plain terms: is recorded shrunken log2 fold change at least -0.03 for RRIRHRPPRLPRPRPRPQCRPRP ? label 0

In plain terms: is recorded shrunken log2 fold change at least -0.03 for RRIRYRPPRLPRPRPRPMPKPRP ? label 1

In plain terms: is recorded shrunken log2 fold change at least -0.03 for RRIRKRPPRLPRPRPRPSCTPRP ? label 1

In plain terms: is recorded shrunken log2 fold change at least -0.03 for RRIRARPPRLPRPRPRPAFQPRP ? label 1

In plain terms: is recorded shrunken log2 fold change at least -0.03 for RRIRWRPPRLPRPRPRPLCDPRP ? label 0

In plain terms: is recorded shrunken log2 fold change at least -0.03 for RRIRFRPPRLPRPRPRPQVFPRP ? label 0

In plain terms: is recorded shrunken log2 fold change at least -0.03 for RRIRPRPPRLPRPRPRPPFFPRP ? label 1

In plain terms: is recorded shrunken log2 fold change at least -0.03 for RRIRLRPPRLPRPRPRPNFRPRP ? label 0

Source: the supplement of paper PMC9112550
